Where do the numbers come from? From patent US20060111305A1.

- testProtocol: Concentrations of DCDQ and DCDQ carbamoyl glucuronide (M6) in human plasma, LC/SRM (Table 34)
- Format: in vivo, healthy human subjects
- settings: human, plasma, oral, 200 mg, plasma, 200 mg (fasted), 6 hr, Mean ± S.D.; read-out: DCDQ concentration in plasma
experimentalReadout: concentration at 6 h (ng/mL)
# output: bare number, implied unit ng/mL

Report concentration at 6 h for c1cc2c3c(c1)[C@H]1CCC[C@H]1CN3CCNC2 [DCDQ, reference compound]
10.9

---

- testProtocol: Dog plasma metabolite profiles after single 15 mg/kg oral capsule of [14C]DCDQ
- Assay type: in vivo, beagle dogs
- settings: male, beagle, dog, plasma, oral, 15 mg/kg, 8 hr, dog 2; read-out: Estimated plasma concentration in dogs
experimentalReadout: concentration at 8 h (ng/mL)
# output: bare number, implied unit ng/mL

Report concentration at 8 h for OC1CN2C[C@@H]3CCC[C@@H]3c3cccc(c32)CN1 (stereo partly shown) [Metabolite M1, hydroxy DCDQ]
61.9

---

Recorded Chromatographic distribution of radioactivity in dog urine values for a group of compounds are listed next.
- testProtocol: Dog urinary excretion and metabolite profiles after oral capsule of [14C]DCDQ
- Assay type: in vivo, beagle dogs
- settings: 24-48 hr, dog 4
# output: bare number, implied unit %

compound	u	observedResult
OC1CN2C[C@@H]3CCC[C@@H]3c3cccc(c32)CN1 (some centres unmarked) [Metabolite M1, hydroxy DCDQ]	%	3.2
OC1[C@@H]2CCC[C@@H]2c2cccc3c2N1CCNC3 (some centres unmarked) [Metabolite M2, hydroxy DCDQ]	%	21
c1cc2c3c(c1)[C@H]1CCC[C@H]1CN3CCNC2 [DCDQ, reference compound]	%	6.9

Report Chromatographic distribution of radioactivity in dog urine for O=C(O)[C@H]1O[C@@H](OC(=O)N2CCN3C[C@@H]4CCC[C@@H]4c4cccc(c43)C2)[C@H](O)[C@@H](O)[C@@H]1O [Metabolite M6, carbamoyl glucuronide of DCDQ]
5.9

Report Chromatographic distribution of radioactivity in dog urine for O=C1CC[C@@H]2c3cccc4c3N(CCNC4)C[C@H]12 [Metabolite M7, 17-keto DCDQ]
3.4

---

- testProtocol: Dog plasma metabolite profiles after single 15 mg/kg oral capsule of [14C]DCDQ
- Assay type: in vivo, beagle dogs
- settings: male, beagle, dog, plasma, oral, 15 mg/kg, 8 hr, dog 3; read-out: Estimated plasma concentration in dogs
experimentalReadout: concentration at 8 h (ng/mL)
# output: bare number, implied unit ng/mL

Report concentration at 8 h for OC1CN2C[C@@H]3CCC[C@@H]3c3cccc(c32)CN1 (stereo partly shown) [Metabolite M1, hydroxy DCDQ]
24.8

---

- testProtocol: Concentrations of DCDQ and DCDQ carbamoyl glucuronide (M6) in human plasma, LC/SRM (Table 34)
- Assay type: in vivo, healthy human subjects
- settings: human, plasma, oral, 500 mg, plasma, 500 mg (fasted), 12 hr, individual subjects; read-out: M6 concentration in plasma
experimentalReadout: concentration at 12 h (ng/mL)
# output: bare number, implied unit ng/mL

Report concentration at 12 h for O=C(O)[C@H]1O[C@@H](OC(=O)N2CCN3C[C@@H]4CCC[C@@H]4c4cccc(c43)C2)[C@H](O)[C@@H](O)[C@@H]1O [Metabolite M6, carbamoyl glucuronide of DCDQ]
146

---

- testProtocol: Rat brain radioactivity content and metabolite profiles after single oral 5 mg/kg [14C]DCDQ
- Format: in vivo, Sprague-Dawley rats
- settings: Sprague-Dawley, rat, brain, oral, 5 mg/kg; female rats, 2 hr, mean ± S.D., N = 3; read-out: Brain concentration, DCDQ (estimated)
experimentalReadout: concentration at 2 h (ng/g)
# output: bare number, implied unit ng/g

Report concentration at 2 h for c1cc2c3c(c1)[C@H]1CCC[C@H]1CN3CCNC2 [DCDQ, reference compound]
6080
